Hi there, I'd appreciate the recorded growth for every entry that follows.
- Tested on: EKVX NSCLC
- assay.explanation: NCI-60 one-dose screen, 48 h (100 = growth as untreated, 0 = no growth, -100 = all killed)
- run.parameters: 10 µM
The panel holds about 83,000 compounds, 20% with a hit somewhere; the sample as a whole holds those more often.
Respond with the bare value in %.

Need growth of `O/N=C/c1ccc(O)cc1O` , thanks.
102

Need growth of `CCCCNC1(C#N)CCN(Cc2ccccc2)CC1` , thanks.
95.5

Need growth of `S=C1CCCCCN1` , thanks.
98.1

Need growth of `FC(F)(F)c1ccc2c(c1)N(CCCN1CCN(C3CC3)CC1)c1ccccc1S2` , thanks.
86.8

Need growth of CSC[C@H](NC(=O)COc1cccc2cnccc12)C(=O)NC(Cc1ccccc1)C(O)C(=O)N1CSC[C@H]1C(=O)NC(C)(C)C (stereo partly specified) , thanks.
103

Need growth of `S=c1[nH]ccn1-c1ccccc1Cl` , thanks.
112
